System: Listeria monocytogenes
run.description: Antibacterial activity against Listeria monocytogenes ATCC 15313 after 24 hrs by agar dilution method
Type: functional
recorded.conditions: ATCC 15313, 24 h
# MIC values compiled below
Kindly provide the numeric value in µg/mL only, without the unit symbol.

O=C(O)c1cnn(-c2ccc(F)cc2)c1NC(=O)c1cc2cc(Cl)ccc2oc1=O; 32
CCOC(=O)c1cnn(-c2ccccc2)c1NC(=O)c1cc2ccccc2oc1=O; 64

Qu. Please supply the value of reported MIC for the item N#Cc1cnn(-c2ccccc2)c1NC(=O)c1cc2cc(Cl)ccc2oc1=O
Ans. 32

Every entry's value here was drawn from ChEMBL document CHEMBL4270589.
